Recorded %Inh values for a group of molecules are listed next.
tested on: CSNK1G1; details: concentration: 1 μM, replicates: in singlicate; n = 1;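 note: KINOMEscan kinase panel screen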
Return type: number; implicit unit %.

Use the examples below as a reference point.
(Q) # lookup: %Inh of Clc1cccc(-c2nc(Nc3ccncc3)c3ccccc3n2)c1
(A) 3

(Q) Recorded %Inh for O=C(c1ccc(-c2cc(-c3c[nH]nc3-c3ccccn3)ccn2)cc1)N1CCCC1 , please?
(A) 9

(Q) Report %Inh for CN1CCC(n2cnc(-c3ccc(F)cc3)c2-c2ccnc(NC3CCNCC3)n2)CC1 please.
(A) 0

(Q) Give its %Inh value. Item: Nc1nc(-c2ccccn2)c(-c2ccnc3ccccc23)s1
(A) 11

(Q) Given COc1ccc(NC(=O)c2ccc(-c3cc(-c4nnc(C)o4)ccc3C)cc2)cc1 , state its recorded %Inh.
(A) 0

(Q) Sample Nc1nc(-c2ccc3c(N)n[nH]c3c2)cc(N2CCC[C@@H](C(=O)Nc3ccccc3)C2)n1.O=C(O)C(F)(F)F.O=C(O)C(F)(F)F — what was its %Inh?
(A) 8

---
(Q) I am curious: what %Inh value has been reported for C[C@@H]1CCN(C(=O)CO)C[C@@H]1N(C)c1ncnc2[nH]ccc12 ?
(A) 0

(Q) Need %Inh, item Cl.O=S(=O)(c1cccc(F)c1)c1ccc(Nc2ncnc3cc(Br)sc23)cc1Cl
(A) 0

---

Items are presented alongside their recorded %Inh.
tested on: PIP5K2B; details: concentration: 1 μM, replicates: in singlicate; n = 1
Field: numeric (%). Do not append units.

Take a look at these entries with their results.
(Q) %Inh for Fc1cccc(COc2ccc(Nc3ncnc4nn5ccccc5c34)cc2Cl)c1 ?
(A) 7

(Q) Requested read-out: %Inh. Entry: COc1ccc(NC(=O)Nc2ccc(C)c(-c3ccc(C(=O)Nc4ccncc4)cc3)c2)cc1
(A) 0

(Q) What measured %Inh goes with CSc1nn2c(=O)cc(N3CCOCC3)nc2n1Cc1cccc(Cl)c1Cl ?
(A) 4

# ---- query compound ----
(Q) Entry Cc1ccc(O)cc1Nc1cc(C(F)(F)F)nc2ccc(-c3ccncc3)cc12 has what %Inh?
(A) 0

---

test system: MAP3K4; settings: concentration: 1 μM, replicates: in singlicate; n = 1
MEASURED_PARAMETER: %Inh (%)
API: value field is a number in %; no unit string.

(Q) Give the reported %Inh for CC(C)N1CCC(n2cnc(-c3ccc(F)cc3)c2-c2ccnc(N)n2)CC1 (system: MAP3K4).
(A) 26

Next:
(Q) Lookup: %Inh / MAP3K4 / CSc1nn2c(=O)cc(N3CCOCC3)nc2n1Cc1cccc(Cl)c1Cl
(A) 31

(Q) Give %Inh (MAP3K4) of the following molecule: Cn1ccc2ncnc(Oc3ccc(NC(=O)Nc4cccnc4)c(Cl)c3)c21
(A) 2

(Q) Find the measured %Inh: item Nc1nc(-c2ccc3c(N)n[nH]c3c2)cc(N2CCC[C@@H](C(=O)Nc3ccccc3)C2)n1.O=C(O)C(F)(F)F.O=C(O)C(F)(F)F , target or system MAP3K4.
(A) 28

(Q) Return %Inh measured with MAP3K4 given this molecule: Nc1nc(-c2ccc3c(N)n[nH]c3c2)cc(N2CCCCC2)n1
(A) 2

(Q) # get_value(readout= %Inh, system= MAP3K4) for NC(=O)c1sc(-n2cnc3ccccc32)cc1OCc1ccccc1F
(A) 23

(Q) Lab note: need %Inh with MAP3K4 for entry Fc1ccc(Nc2nccc(-c3c(-c4ccc(Cl)cc4)nn4ncccc34)n2)cc1F , please look it up.
(A) 17

(Q) // lookup %Inh | system=MAP3K4 | key= Nc1nc(-c2ccccn2)c(-c2ccnc3ccccc23)s1
(A) 4

(Q) API: value(readout=%Inh, system=MAP3K4) for record Cl.Cn1ccc(-c2cccc(Nc3ccnc4cc(-c5nccs5)ccc34)c2)n1
(A) 10
